I'd be grateful if you could share measured z-score for these entries.
Assay: budding yeast growth modifiers under rapamycin – strain BY4716, OD600, 96 h, primary screen (AID 1091); note: test concentration not given here
Conditions: S. cerevisiae BY4716 + rapamycin, higher = more signal, called active from +8 up or from −8 down
Calls of active or inactive are those of the source.

Request: # return recorded z-score for input COC(=O)C1=CC(CCCO)=CC(c2cccs2)N(Cc2cccc(OC(F)(F)F)c2)C=C1C(=O)OC (centres undefined)
Response: -1.45 (inactive)

Request: # return recorded z-score for input NC(=O)[C@@]1(Cc2ccccc2)COC(c2ccc(OCCCO)cc2)=N1
Response: 1.19 (inactive)

Request: # return recorded z-score for input Cc1ccc(S[C@]2(C(=O)NCC(F)(F)F)CC(=O)N(Cc3cc(C(F)(F)F)cc(C(F)(F)F)c3)[C@@H]2c2ccc(CO)cc2I)cc1
Response: -0.857 (inactive)

Request: # return recorded z-score for input O=C1C[C@]2(c3ccc([N+](=O)[O-])cc3)C(=O)N(C3CC3)c3cc(CO)ccc3[C@H]2N1CC12CC3CC(CC(C3)C1)C2
Response: -0.574 (inactive)

----------
I'd be grateful if you could share measured composite z-score for these entries.
System: Sonic hedgehog protein (Shh)
Assay: Sonic hedgehog microarray binding compounds – biochemical, small-molecule microarray, 635/667 nm fluorescence, primary screen (AID 1151);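 note: Shh protein binding to compounds spotted on small-molecule microarray slides; score combines spot fluorescence intensity with signal-to-noise across triplicate slides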
Settings: 635 nm fluorescence, higher = more signal
# print the numeric value only

Request: # return recorded composite z-score for input COC(=O)C/C=C/C[C@]1(O)C(=O)N(C)c2ccccc21
Response: 0.775

Request: # return recorded composite z-score for input CCCCN1CC=CC23O[C@@H]4/C=C\CCCOC(=O)C4[C@H]2C(=O)N(CCO)[C@@H]3C1=O (stereo partly drawn)
Response: -0.214

Request: # return recorded composite z-score for input O=C(C1N=C(c2ccc(OCCCO)cc2)N(c2ccccc2)O1)N1CCCCC1 (stereo not drawn)
Response: 0.17

Request: # return recorded composite z-score for input CCCCC(CC)C(O)C1C=CC2C(=O)N(c3ccccc3)C(=O)C2N1Nc1ccc(C#N)cc1 (stereo not drawn)
Response: -0.387

Request: # return recorded composite z-score for input CCCCNC(=O)c1ccc(C#CC(C)(C)C)c(OC(C)=O)c1
Response: 0.804

Request: # return recorded composite z-score for input C=C(COC)/C(=C/C[C@H](OC(=O)c1ccncc1)c1ccc(CO)o1)c1cnc2ccccc2c1
Response: 2.07

Request: # return recorded composite z-score for input NC(=O)NCC#Cc1ccc2c(c1)[C@]1(C(=O)N2)[C@H](c2ccccc2OCCO)N2[C@H](c3ccccc3)[C@H](c3ccccc3)OC(=O)[C@H]2[C@@H]1C(=O)NC[C@H](O)c1ccccc1
Response: -0.174

Request: # return recorded composite z-score for input O=C1O[C@H](c2ccccc2)[C@H](c2ccccc2)N2[C@H]1[C@@H](C(=O)O)[C@]1(C(=O)Nc3ccc(C#CCCO)cc31)[C@H]2c1ccccc1OCCO
Response: 0.824

----------
Test: probe aShh binding to arrayed compounds – biochemical, biotinylated probe, 635/667 nm fluorescence, primary screen (AID 1114);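 note: probe is biotin-labelled aShh protein from a stem cell growth factor screen; measures binding of labelled protein to compounds printed on the slide; score merges feature fluorescence at 667 nm with signal-to-noise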
Conditions: small-molecule microarray, higher = more signal
Readout Kind: composite z-score
# print the numeric value only

Request: # return recorded composite z-score for input COc1ccc(C#Cc2ccc3c(c2)[C@]2(C(=O)N3)[C@H](c3ccc(OCCO)cc3)N3[C@H](c4ccccc4)[C@H](c4ccccc4)OC(=O)[C@H]3[C@@H]2C(=O)NC[C@H](O)c2ccccc2)cc1
Response: -0.0146

Request: # return recorded composite z-score for input CO[C@H]1O[C@H](CO)[C@@H](OC(=O)Nc2ccc3c(c2)OCO3)[C@H](OC(=O)Nc2ccc3c(c2)OCO3)[C@@H]1OC(=O)Nc1ccc2c(c1)OCO2
Response: 0.313

Request: # return recorded composite z-score for input C[C@@H]1NC(=O)[C@@H](Cc2ccccc2)NC(=O)[C@@]23C(=O)N[C@@H](Cc4ccccc4)C2[C@H](C)[C@@]2(C)O[C@H]2C3/C=C/C/C=C\CNC1=O (stereo partly specified)
Response: -0.0471

Request: # return recorded composite z-score for input C=CCC(OC(C)=O)[C@@H]1[C@@H](N(Cc2cccc3ccccc23)C(=O)Cc2ccc(F)cc2)c2cc(OCCCO)ccc2N1C(=O)c1ccc2ccccc2c1 (stereo partly specified)
Response: -0.0626

Request: # return recorded composite z-score for input CCOC(=O)C[C@H]1[C@H](OC(=O)Cc2ccc3c(c2)OCO3)[C@@H](NC(=O)c2ccc3ccccc3n2)c2cc(OCCCO)ccc2N1C(=O)c1ccc2ccccc2n1
Response: 0.0048

Request: # return recorded composite z-score for input C=CC[C@@]1(C(=O)NCCCOC)N=C(c2ccc(OCCCO)cc2)O[C@@H]1c1ccccc1N=[N+]=[N-]
Response: 0.0639
